# SYSTEM_UNDER_TEST: Beta-galactosidase (Escherichia coli)
# Sequence (Q8VNN2 whole entry): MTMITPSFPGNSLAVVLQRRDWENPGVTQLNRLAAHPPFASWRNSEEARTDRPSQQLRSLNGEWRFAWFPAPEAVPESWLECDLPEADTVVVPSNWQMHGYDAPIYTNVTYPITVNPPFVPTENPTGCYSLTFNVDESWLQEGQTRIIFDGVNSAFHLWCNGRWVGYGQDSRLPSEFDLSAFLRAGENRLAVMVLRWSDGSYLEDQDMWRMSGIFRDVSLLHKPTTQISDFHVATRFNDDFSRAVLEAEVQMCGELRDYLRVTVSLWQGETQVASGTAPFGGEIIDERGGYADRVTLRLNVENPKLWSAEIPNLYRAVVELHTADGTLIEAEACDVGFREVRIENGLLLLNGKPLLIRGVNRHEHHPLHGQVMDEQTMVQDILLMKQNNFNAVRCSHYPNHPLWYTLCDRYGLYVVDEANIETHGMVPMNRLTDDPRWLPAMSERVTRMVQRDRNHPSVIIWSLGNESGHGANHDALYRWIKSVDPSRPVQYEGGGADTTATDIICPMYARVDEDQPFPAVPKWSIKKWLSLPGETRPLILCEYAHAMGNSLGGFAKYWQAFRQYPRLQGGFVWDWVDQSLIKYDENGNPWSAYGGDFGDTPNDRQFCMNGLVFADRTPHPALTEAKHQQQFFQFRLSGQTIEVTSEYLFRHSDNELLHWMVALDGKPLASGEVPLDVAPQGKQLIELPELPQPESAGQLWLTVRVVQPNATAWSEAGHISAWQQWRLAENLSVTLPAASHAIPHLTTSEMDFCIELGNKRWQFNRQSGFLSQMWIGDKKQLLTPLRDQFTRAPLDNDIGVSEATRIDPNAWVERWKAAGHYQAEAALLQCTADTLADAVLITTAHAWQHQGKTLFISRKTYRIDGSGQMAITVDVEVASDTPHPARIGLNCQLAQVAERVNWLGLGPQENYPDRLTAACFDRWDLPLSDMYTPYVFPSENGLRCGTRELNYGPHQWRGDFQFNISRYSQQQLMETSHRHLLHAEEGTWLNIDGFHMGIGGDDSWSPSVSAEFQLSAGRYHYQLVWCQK
OBSERVABLE: Ki (nM)
Write the number in nM without appending the unit.

In: Using the record for Cc1ccc(CNC2=N[C@H](CO)[C@H](O)[C@H](O)C2)cc1 , report its Ki.
Out: 1.3

In: Form field: reported Ki of CO[C@H]1C(NCc2ccc(C)cc2)=N[C@H](CO)[C@H](O)[C@@H]1O
Out: 42

In: Sample CO[C@@H]1[C@H](O)[C@@H](O)C(NCc2ccc(C)cc2)=N[C@@H]1CO — what was its Ki?
Out: 32

In: Give the measured Ki of Cc1ccc(C/N=C2\N[C@H](CO)[C@H](O)[C@H](O)[C@H]2O)cc1 .
Out: 0.06
